- Tgt: Glycogen synthase kinase-3 alpha (Homo sapiens)
- Sequence (P49840 whole entry): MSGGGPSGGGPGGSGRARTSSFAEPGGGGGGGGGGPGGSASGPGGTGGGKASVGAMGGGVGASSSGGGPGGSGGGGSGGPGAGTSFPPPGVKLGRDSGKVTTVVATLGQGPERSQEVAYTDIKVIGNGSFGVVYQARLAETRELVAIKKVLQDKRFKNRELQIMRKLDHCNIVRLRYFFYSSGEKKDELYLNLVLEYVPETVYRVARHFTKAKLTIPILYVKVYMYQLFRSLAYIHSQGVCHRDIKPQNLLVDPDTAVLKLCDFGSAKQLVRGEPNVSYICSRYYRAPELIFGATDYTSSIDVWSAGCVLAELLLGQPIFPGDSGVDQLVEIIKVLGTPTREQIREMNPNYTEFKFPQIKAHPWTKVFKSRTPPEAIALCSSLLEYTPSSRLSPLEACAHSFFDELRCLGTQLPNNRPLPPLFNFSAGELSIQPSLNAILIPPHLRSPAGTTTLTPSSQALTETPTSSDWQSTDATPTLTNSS
Active and inactive are the calls of the source.
Result category, one only: active, inactive

Below are worked cases with known answers.
C[C@@H](N)c1ccc(C(=O)Nc2ccnc3[nH]ccc23)cc1 : active
CNC(=O)c1cccc2cc(Oc3ccnc4cc(OCC5(N)CC5)c(OC)cc34)ccc12 : inactive
CCn1cc(-c2ccnc3[nH]c(-c4cccc(CN(C)C)c4)cc23)c(-c2ccc(NC(=O)N(C)C)cc2)n1 : inactive
NC(=O)Nc1cc(-c2cccc(F)c2)sc1C(=O)N[C@H]1CCCNC1 : inactive
CCNC(=O)C#Cc1ccc2c(c1)NC(=O)/C2=C(\Nc1ccc(CN(C)C)cc1)c1ccccc1 : inactive

Ask: Hi, do you know how "CCOc1cc2ncc(C#N)c(Nc3ccc(F)c(Cl)c3)c2cc1NC(=O)/C=C/CN(C)C" came out in this test?
Result: inactive

Ask: For "COc1ncc(-c2ccc3nccc(-c4ccnnc4)c3c2)cc1NS(=O)(=O)c1ccc(F)cc1F" , which call appears in the assay record?
Result: inactive

Ask: In this assay, the call recorded for "CN(C[C@@H]1COCCO1)S(=O)(=O)Nc1ccc2ccc3ncc(-c4cnn(C)c4)cc3c(=O)c2c1" was what?
Result: inactive

----------
- Tgt: Ephrin type-A receptor 2 (Homo sapiens, UniProt P29317)
- Sequence (P29317 whole entry): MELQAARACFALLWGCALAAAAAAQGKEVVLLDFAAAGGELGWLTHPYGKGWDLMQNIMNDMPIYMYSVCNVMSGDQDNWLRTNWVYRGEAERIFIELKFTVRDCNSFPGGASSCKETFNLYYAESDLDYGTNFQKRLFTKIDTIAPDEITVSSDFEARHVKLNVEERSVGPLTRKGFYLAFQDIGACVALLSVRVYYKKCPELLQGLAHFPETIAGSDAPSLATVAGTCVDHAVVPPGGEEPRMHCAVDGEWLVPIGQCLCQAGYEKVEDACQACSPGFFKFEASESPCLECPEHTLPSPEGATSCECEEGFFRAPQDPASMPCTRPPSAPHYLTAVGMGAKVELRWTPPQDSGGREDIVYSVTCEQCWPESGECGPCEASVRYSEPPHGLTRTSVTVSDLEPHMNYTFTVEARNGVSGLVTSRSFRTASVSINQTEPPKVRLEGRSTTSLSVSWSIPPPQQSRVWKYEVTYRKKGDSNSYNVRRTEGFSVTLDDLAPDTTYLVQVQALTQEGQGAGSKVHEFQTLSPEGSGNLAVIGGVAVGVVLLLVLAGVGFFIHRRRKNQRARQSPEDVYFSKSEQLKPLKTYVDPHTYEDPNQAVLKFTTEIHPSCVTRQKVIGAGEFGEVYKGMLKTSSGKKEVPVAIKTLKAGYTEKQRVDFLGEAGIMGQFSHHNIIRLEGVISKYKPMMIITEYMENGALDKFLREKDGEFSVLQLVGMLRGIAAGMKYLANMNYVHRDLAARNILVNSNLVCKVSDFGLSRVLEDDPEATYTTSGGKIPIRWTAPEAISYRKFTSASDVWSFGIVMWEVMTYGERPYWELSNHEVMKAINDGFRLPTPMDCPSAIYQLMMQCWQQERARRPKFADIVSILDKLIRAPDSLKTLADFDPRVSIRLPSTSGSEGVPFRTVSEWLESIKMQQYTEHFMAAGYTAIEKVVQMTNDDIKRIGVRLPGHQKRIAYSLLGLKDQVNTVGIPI
The source made the active and inactive calls.
Hello, when you answer, please use one of the following outcomes: T (active), F (inactive)

Field: example entries. Status: answers known.
CC(C)c1cc(CNc2nc(Nc3cc(C4CC4)[nH]n3)cc(N3CCN(C)CC3)n2)on1 : T
CC(=O)c1cnc2ccc(-c3cc(Cl)c(O)c(Cl)c3)nc2c1N[C@H]1CC[C@H](CN(C)C)CC1 : T
Cc1cc(C(=O)NOCCO)c(Nc2ccc(I)cc2F)n(C)c1=O : F
CO[C@H]1C[C@@H]2CC[C@@H](C)[C@@](O)(O2)C(=O)C(=O)N2CCCC[C@H]2C(=O)O[C@H]([C@H](C)C[C@@H]2CC[C@@H](OP(C)(C)=O)[C@H](OC)C2)CC(=O)[C@H](C)/C=C(\C)[C@@H](O)[C@@H](OC)C(=O)[C@H](C)C[C@H](C)/C=C/C=C/C=C/1C : F
Cn1ncc(Cl)c1-c1cc(C(=O)N[C@H](CN)Cc2ccc(F)c(F)c2)oc1Cl : F

Ask: Call for entry "CNC(=O)c1nn(C)c2c1C(C)(C)Cc1cnc(Nc3ccc(N4CCN(C)CC4)cc3)nc1-2" :
Result: T

Ask: Please let me know the test result on file for "COCc1c(-c2ccc(NC(=O)Nc3cc(C(F)(F)F)ccc3F)c(F)c2)c2c(N)ncnn2c1CN1CCOCC1" .
Result: F

Ask: Short answer needed: outcome of this test for "Cc1cccc(-c2nn3c(c2-c2ccnc4ccc(C(N)=O)cc24)CCC3)n1" ?
Result: F

----------
In what follows, each item is paired with its Kd for Adenylate kinase 2, mitochondrial (Homo sapiens).
Calls of active or inactive are those of the source.

C#Cc1cccc(Nc2ncnc3cc(OC)c(OCCCCCCC(=O)NO)cc23)c1 : 1.04 µM (active)

Ask: Tell me Kd of "Cn1cc(-c2cnc3ccc4ccc(CS(=O)(=O)NCc5ccccn5)cc4c(=O)c3c2)cn1" when tested on Adenylate kinase 2, mitochondrial (Homo sapiens). Further: in the data inactive means no Kd found up to 30 µM.
Result: > 30 µM (inactive)

Ask: # lookup: Adenylate kinase 2, mitochondrial (Homo sapiens) Kd, key = "O=C(Nc1nc2cccc(-c3ccc(CN4CCS(=O)(=O)CC4)cc3)n2n1)C1CC1"
Result: > 30 µM (inactive)

Ask: Using Adenylate kinase 2, mitochondrial (Homo sapiens) as the test system, report measured Kd of "COc1ncc(-c2ccc3nccc(-c4ccnnc4)c3c2)cc1NS(=O)(=O)c1ccc(F)cc1F" .
Result: > 30 µM (inactive)

----------
The source made the active and inactive calls.
Here's a batch of compounds along with measured Kd for Protein kinase C delta type (Homo sapiens).

CO[C@H]1C[C@@H]2CC[C@@H](C)[C@@](O)(O2)C(=O)C(=O)N2CCCC[C@H]2C(=O)O[C@H]([C@H](C)C[C@@H]2CC[C@@H](O)[C@H](OC)C2)CC(=O)[C@H](C)/C=C(\C)[C@@H](O)[C@@H](OC)C(=O)[C@H](C)C[C@H](C)/C=C/C=C/C=C/1C [SIROLIMUS] : > 30 µM (inactive)
CNC(=O)c1cccc2cc(Oc3ccnc4cc(OCC5(N)CC5)c(OC)cc34)ccc12 [LUCITANIB] : > 30 µM (inactive)

Proceed to the following item.
Ask: Give recorded Kd. C[C@@H](N)c1ccc(C(=O)Nc2ccnc3[nH]ccc23)cc1 [Y-39983]
Result: 0.034 µM (active)

----------
- Tgt: Aurora kinase B (Homo sapiens, UniProt Q96GD4)
- Sequence (Q96GD4 whole entry): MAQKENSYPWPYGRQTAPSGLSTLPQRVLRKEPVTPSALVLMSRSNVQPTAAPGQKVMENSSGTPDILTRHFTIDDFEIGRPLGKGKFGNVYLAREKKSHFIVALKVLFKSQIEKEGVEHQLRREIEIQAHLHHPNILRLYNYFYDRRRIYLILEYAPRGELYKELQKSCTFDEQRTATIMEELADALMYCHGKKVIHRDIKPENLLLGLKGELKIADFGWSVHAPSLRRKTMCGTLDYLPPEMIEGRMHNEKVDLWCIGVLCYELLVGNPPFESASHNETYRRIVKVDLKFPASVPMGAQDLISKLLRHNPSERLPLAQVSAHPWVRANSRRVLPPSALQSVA
The source made the active and inactive calls.
Entry note: the call must match one of active, inactive

Recorded results for 3 molecules are shown here.
COc1cc2ncnc(Oc3cccc(NC(=O)Nc4cc(C(C)(C)C(F)(F)F)on4)c3)c2cc1OC [CEP-32496] : inactive
C[C@@H](Oc1cc(C(=O)Nc2ccc(C(=O)N3CCN(C)CC3)cc2)nnc1N)c1c(Cl)ccc(F)c1Cl : inactive
CCNC(=O)C#Cc1ccc2c(c1)NC(=O)/C2=C(\Nc1ccc(CN(C)C)cc1)c1ccccc1 : active

Ask: Short answer needed: outcome of this test for C[C@@H](N)c1ccc(C(=O)Nc2ccnc3[nH]ccc23)cc1 [Y-39983] ?
Result: inactive

Ask: What call does the record list for N#CC1(c2ccc(NC(=O)c3cccnc3NCc3ccncc3)cc2)CCCC1 [RIVOCERANIB] ?
Result: inactive

Ask: Lab log entry: COc1cc2c(Nc3ccc(Cl)c(Cl)c3F)ncnc2cc1OC[C@@H]1C[C@@H]2CN(C)C[C@@H]2C1 [TESEVATINIB] — outcome as called in the assay?
Result: inactive

Ask: Dear all, I need the recorded test outcome for CCn1c(C(=O)N(C2CC2)C2CC2)cc2c3c(ncn3C)c(Nc3cc(C)n(C)n3)nc21 [BMS-911543] , thank you.
Result: inactive

Ask: Check the results log: what was the call for COCC(=O)NC/C=C/c1ccc2ncnc(Nc3ccc(Oc4ccc(C)nc4)c(C)c3)c2c1 [CP-724714] ?
Result: inactive

----------
Quick note: these are Kd numbers for system: TGF-beta receptor type-1 (Homo sapiens, UniProt P36897); further: in the data inactive means no Kd found up to 30 µM
Sequence (P36897 whole entry): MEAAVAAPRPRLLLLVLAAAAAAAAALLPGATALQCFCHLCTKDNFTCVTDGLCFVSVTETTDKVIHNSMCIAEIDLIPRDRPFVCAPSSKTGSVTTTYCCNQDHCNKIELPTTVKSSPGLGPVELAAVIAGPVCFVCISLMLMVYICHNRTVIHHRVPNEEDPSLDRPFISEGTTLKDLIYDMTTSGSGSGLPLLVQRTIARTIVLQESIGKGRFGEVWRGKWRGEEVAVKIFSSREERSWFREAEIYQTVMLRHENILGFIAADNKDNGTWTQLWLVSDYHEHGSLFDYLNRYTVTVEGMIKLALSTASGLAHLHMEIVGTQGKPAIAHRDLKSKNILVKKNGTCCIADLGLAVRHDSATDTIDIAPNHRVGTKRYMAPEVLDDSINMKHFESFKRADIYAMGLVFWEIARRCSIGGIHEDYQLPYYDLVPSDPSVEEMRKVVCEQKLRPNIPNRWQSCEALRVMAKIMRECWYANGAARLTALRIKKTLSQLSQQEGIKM
Counter-ions that a name gives are not always drawn. Activity calls are given as the source filed them.

Below, each entry is followed by its recorded Kd result.
CCS(=O)(=O)N1CCN(c2ccc(Nc3ncc(C(N)=O)c(NC4CC4)n3)cc2)CC1 [Cerdulatinib Hydrochloride] : > 30 µM (inactive)
C[C@@H](Oc1cc(C(=O)Nc2ccc(C(=O)N3CCN(C)CC3)cc2)nnc1N)c1c(Cl)ccc(F)c1Cl : > 30 µM (inactive)
COc1cc2c(Nc3ccc(Cl)c(Cl)c3F)ncnc2cc1OC[C@@H]1C[C@@H]2CN(C)C[C@@H]2C1 [TESEVATINIB] : 3.32 µM (active)

Shift focus to the following entry.
Ask: Tell me its Kd on TGF-beta receptor type-1 (Homo sapiens, UniProt P36897): C=CC(=O)Nc1cc2c(Nc3ccc(F)c(Cl)c3)ncnc2cc1C#CC(C)(C)N1CCN(C)CC1 [AV-412 FREE BASE]
Result: > 30 µM (inactive)

----------
- Tgt: Interleukin-1 receptor-associated kinase 3 (Homo sapiens)
- Sequence (Q9Y616 whole entry): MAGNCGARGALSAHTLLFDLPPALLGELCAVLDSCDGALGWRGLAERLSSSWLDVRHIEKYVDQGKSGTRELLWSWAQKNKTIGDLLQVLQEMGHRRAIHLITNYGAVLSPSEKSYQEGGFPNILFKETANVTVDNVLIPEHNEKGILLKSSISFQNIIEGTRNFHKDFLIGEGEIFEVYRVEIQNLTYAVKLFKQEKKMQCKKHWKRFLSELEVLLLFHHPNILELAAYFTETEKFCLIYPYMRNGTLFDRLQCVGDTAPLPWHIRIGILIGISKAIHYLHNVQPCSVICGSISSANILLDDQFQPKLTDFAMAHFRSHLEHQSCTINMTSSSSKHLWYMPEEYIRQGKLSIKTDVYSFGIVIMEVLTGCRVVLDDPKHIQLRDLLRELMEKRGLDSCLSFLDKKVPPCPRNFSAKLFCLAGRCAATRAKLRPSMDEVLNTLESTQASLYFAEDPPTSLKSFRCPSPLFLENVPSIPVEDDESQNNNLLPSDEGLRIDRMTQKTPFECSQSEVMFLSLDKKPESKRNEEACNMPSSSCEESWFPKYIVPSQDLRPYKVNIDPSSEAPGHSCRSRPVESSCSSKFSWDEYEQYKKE
Where a name gives a salt, the structure may show the parent alone. Calls of active or inactive are those of the source.
I would appreciate it if you answered using one of these outcomes: active, inactive

CCCCCCCCCCCCCCCCCCOP(=O)([O-])OC1CC[N+](C)(C)CC1 [PERIFOSINE] : inactive
Cc1cc(Nc2ncnc3ccc(NC4=NC(C)(C)CO4)cc23)ccc1Oc1ccn2ncnc2c1 [TUCATINIB] : inactive
NC(=O)Nc1cc(-c2cccc(F)c2)sc1C(=O)N[C@H]1CCCNC1 [AZD-7762] : inactive

Ask: Record lookup: outcome of this test for CCS(=O)(=O)N1CCN(c2ccc(Nc3ncc(C(N)=O)c(NC4CC4)n3)cc2)CC1 [Cerdulatinib Hydrochloride] ?
Result: inactive

Ask: Short answer needed: outcome of this test for C[C@@H](N)c1ccc(C(=O)Nc2ccnc3[nH]ccc23)cc1 [Y-39983] ?
Result: inactive

Ask: Entry Cc1nc(Nc2n[nH]c3c2CN(C(=O)N[C@H](CN(C)C)c2ccccc2)C3(C)C)c2sccc2n1 [PF-03758309] : call = ?
Result: inactive

Ask: Tell me the recorded outcome of this test for CN1CCN(CCOc2cc(OC3CCOCC3)c3c(Nc4c(Cl)ccc5c4OCO5)ncnc3c2)CC1 [SARACATINIB] .
Result: inactive

Ask: # fetch the recorded call for CC(C)(C)c1nc(-c2cccc(NS(=O)(=O)c3c(F)cccc3F)c2F)c(-c2ccnc(N)n2)s1 [DABRAFENIB] here
Result: inactive

Ask: Assay outcome for Cn1cc(-c2cnc3ccc4ccc(CS(=O)(=O)NCc5ccccn5)cc4c(=O)c3c2)cn1 [MK-8033] : what was it?
Result: inactive

Ask: Lab log entry: COc1cc2c(Nc3ccc(Cl)c(Cl)c3F)ncnc2cc1OC[C@@H]1C[C@@H]2CN(C)C[C@@H]2C1 [TESEVATINIB] — outcome as called in the assay?
Result: inactive

Ask: Hi team, can someone confirm the assay call for COc1cc2ncnc(Oc3cccc(NC(=O)Nc4cc(C(C)(C)C(F)(F)F)on4)c3)c2cc1OC [CEP-32496] ?
Result: inactive

Ask: I would be grateful if you could indicate the recorded call for CN(C[C@@H]1COCCO1)S(=O)(=O)Nc1ccc2ccc3ncc(-c4cnn(C)c4)cc3c(=O)c2c1 [MK-2461] .
Result: active

Ask: Field: outcome | Entry: Cc1nc2cc(-n3ncc(C(=O)c4cc5ccccc5[nH]4)c3N)ccc2[nH]1 [FGFR INHIBITOR DEBIO 1347]
Result: inactive

Ask: Could you kindly confirm the outcome this assay logged for "C[C@@H](Oc1cc(C(=O)Nc2ccc(C(=O)N3CCN(C)CC3)cc2)nnc1N)c1c(Cl)ccc(F)c1Cl" ?
Result: inactive

Ask: Identify the outcome logged in this assay for the molecule shown: Cc1cnc(NC(=O)Nc2cc(Br)c(C)cc2OC[C@@H]2CNCCO2)cn1 [RABUSERTIB]
Result: inactive

Ask: Per the records of this test, what outcome belongs to O=C(Cc1ccc(-c2ccc(OCCN3CCOCC3)cc2)cn1)NCc1ccccc1 [TIRBANIBULIN] ?
Result: inactive

Ask: What did the test return for O=C(Nc1nc2cccc(-c3ccc(CN4CCS(=O)(=O)CC4)cc3)n2n1)C1CC1 [FILGOTINIB] ?
Result: inactive

Ask: Which outcome did this test record for the molecule CNC(=O)c1cc(Oc2ccc(NC(=O)Nc3cc(C(C)(C)C)nn3-c3ccc4ncccc4c3)c(F)c2)ccn1 [REBASTINIB] ?
Result: inactive

Ask: GET /call?item= CC(=O)NCC(=O)N1[C@@H]2CC[C@H]1c1ccc(Nc3ncc(C(F)(F)F)c(NC4CCC4)n3)cc12 [PF-03814735] returns the recorded outcome of this test.
Result: inactive

Ask: // param item: "C=CC(=O)N1CCC[C@H](n2c(=O)n(-c3ccc(Oc4ccccc4)cc3)c3c(N)ncnc32)C1" ; yields the recorded call
Result: inactive
